result-type: melting point (°C)

1. CCOc1ccc2c(c1)C(C)(c1cc(N)ccc1Cl)C(=O)N2S(=O)(=O)c1ccc(C(=O)NC(C)(C)C)cc1OC (centres unmarked) :: 166
2. COc1cc(C(=O)NC(C)(C)C)ccc1S(=O)(=O)N1C(=O)C(C)(c2ccccc2Cl)c2cc(O)ccc21 (centres unmarked) :: 166

I: CCOc1ccc2c(c1)C(C)(c1cc(C(=O)NCCN3CCOCC3)ccc1Cl)C(=O)N2S(=O)(=O)c1ccc(C(=O)NC(C)(C)C)cc1OC (centres unmarked)
II: CCOc1ccc2c(c1)C(C)(c1cc(C(=O)O)ccc1Cl)C(=O)N2S(=O)(=O)c1ccc(C(=O)NC(C)(C)C)cc1 (centres unmarked)
Input line: Lab note: record which item had the higher melting point, I or II . Your answer should be the label of the entry you select.
Output line: II
(II: 188 °C, I: 124 °C)
